targetEntity: T1, SARS-CoV-2 S1 (aa16-685) (Wuhan) (SARS-CoV-2 Wuhan, UniProt P0DTC2 16-685)
T1 construct: NRC; FLAG, 6xHis tags
experimentalDetails: ELISA, coated antigen, apparent EC50
readoutKind: EC50 (nM)
Respond with the bare value in nM.

Below, each entry is followed by its recorded EC50 result.
NRCoV2-SR02 VHH-Fc (Fc fusion, bivalent) EVQLVDSGGGLVQAGGSLRLSCTASEFTLNYYSIGWFRQSPGKEREGVSCIRYSGGGIDYADSVKGRFTISRDNAKNTVYLTMNSLKPEDTAVYYCAADRLYSRACPTAGGRNYWGQGTQVTVSS :: 0.13
NRCoV2-SR04 VHH-Fc (Fc fusion, bivalent) QVQLVESGGGLVQAGGSLRLSCAASGRTFSSHTVGWYRQAPGKQRDLVAAISMGGNTNYADYADSVKGRFTISRDNAKNTLYLQMNSLKPEDTAVYYCNTAALVGNRLLPMATITWGQGTQVTVSS :: 0.25
NRCoV2-SR01 VHH-Fc (Fc fusion, bivalent) EVQLVQSGGGSVQAGGSLRLSCVASGFTFDNYAIGWFRQAPGKEREGVSCISGNGGVTIYADSVKGRFTISRDNAKNLVYLQMNSLKPEDTAVYYCAATGIRSTWSVYGCSRLAGPYDYWGQGTQVTVSS :: 0.23

Req: Given the binder NRCoV2-02 VHH-Fc (Fc fusion, bivalent) EVQLVESGGGLVQAGGSLRLSCAASGFTFSNYAMNWVRQAPGKGLEWVSGISGRGDDTRYADSVKGRFTISRDNAKNTLFLQMRSLRPEDTGVYRCTKGPDLYYFGSGYSDRGQGTQVTVSS , what is its reported EC50?
Resp: 0.11

Req: Given the binder NRCoV2-MRed06 VHH-Fc (Fc fusion, bivalent) EVQLVESGGGLVQAGGSLRLSCAASGFTLAYYAIGWFRQAPGKEREGVSCISSSDGSAHYADSVKGRFTISRDNAKNTVSLQMNSLKPEDTAVYYCATDSFSSCSDYESGMDFWGKGTQVTVSS , what is its reported EC50?
Resp: 0.59

Req: Given the binder NRCoV2-SR16 VHH-Fc (Fc fusion, bivalent) QVQLVQSAGGLVQAGGSLRLSCVVSGTTFSRYHMGWHRQAPGKQRDFVAGISTSGAVTYADSAKGRFTISRDNAKNTVYLEMNSLKLEDTALYYCNTGGWDYRSSTFIMGLNWGQGTQVTVSS , what is its reported EC50?
Resp: 2.7

Req: Given the binder NRCoV2-MRed07 VHH-Fc (Fc fusion, bivalent) EVQLVESGGGLVQPGGSLTLSCAASGSIGPFNTMGWYRQAPGNQREPAAIITRGGVTNYADSVKGRFTISRDNAKNAVYLQMDSLKPDDTAVYYCYANYGWAIPYWGNGTQVTVSS , what is its reported EC50?
Resp: 1.5

Req: Given the binder NRCoV2-SR03 VHH-Fc (Fc fusion, bivalent) AVQLVDSGGGLVQAGGSLRLSCAASGSIFSNNHMGWYRQAPGKQRELVAAISSGGKTNYADFAKGRFTISRDNAKNMVYLQMNSLKPEDTAVYYCNRGGWEYRSSYYIMGPHWGQGTQVTVSS , what is its reported EC50?
Resp: 0.2

Values compiled from patent US20240270826A1.
